A collection of compounds and their measured IC50
- target.of.assay: UniProtKB O43613
- Sequence (O43613 whole entry): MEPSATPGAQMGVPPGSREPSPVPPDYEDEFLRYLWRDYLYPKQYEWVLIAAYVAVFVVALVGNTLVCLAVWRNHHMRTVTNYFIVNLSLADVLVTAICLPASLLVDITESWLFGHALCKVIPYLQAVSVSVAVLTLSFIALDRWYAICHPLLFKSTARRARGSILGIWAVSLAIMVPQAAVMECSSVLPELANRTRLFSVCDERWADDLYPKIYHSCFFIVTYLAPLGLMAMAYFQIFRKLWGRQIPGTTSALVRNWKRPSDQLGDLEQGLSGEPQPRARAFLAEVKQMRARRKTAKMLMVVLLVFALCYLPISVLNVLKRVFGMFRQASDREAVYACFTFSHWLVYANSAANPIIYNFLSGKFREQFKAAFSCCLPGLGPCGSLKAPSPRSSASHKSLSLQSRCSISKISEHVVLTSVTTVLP
- assay.method.text: FLIPR Ca2+ Flux Assay, CHO cells expressing human orexin-1 receptor
- measurement.setup: agonist Ala-6,12 human orexin-A 70 pM
Output spec: scalar in µM, unitless text.

C[C@@H]1CC[C@@H](c2csc(C(C)(C)O)n2)CN1C(=O)c1ccccc1-n1nccn1 ... 2.3
Cc1sc([C@@H]2CC[C@@H](C)N(C(=O)c3ccccc3-c3ncccn3)C2)nc1C(C)(C)O ... 0.6
C[C@@H]1CC[C@@H](c2nc([C@@H](O)C(F)(F)F)cs2)CN1C(=O)c1ccccc1-n1nccn1 ... 0.36
C[C@@H]1CC[C@@H](c2nc(C(C)(C)O)cs2)CN1C(=O)c1ccsc1-n1nccn1 ... 7.4

Field: next compound
Prompt: Look up IC50 of C[C@@H]1CC[C@@H](c2nc([C@H](O)C(F)(F)F)cs2)CN1C(=O)c1ccccc1-n1nccn1 and report it.
Response: 10
